Data provenance is the METLIN SMRT retention time set (Domingo-Almenara et al. 2019).

Assay: gradient 5% acetonitrile 3 min, to 50% in 2 min, to 85% in 15 min, held 3 min, 100 µL/min
Conditions: column: Zorbax Extend-C18 2.1 x 50 mm; eluents: water / acetonitrile, 0.1% formic acid
Quick list: RP-LC retention time per entry.
Reply with just the number (in s).

molecule: O=C(NCc1ccccc1)C1CCCN(c2ncnc3c2oc2ccccc23)C1 (centres undefined)
RP-LC retention time (s): 754

molecule: COc1ccc(-c2cc(C(=O)N3CCN(S(=O)(=O)c4ccc(Cl)cc4)CC3)[nH]n2)cc1
RP-LC retention time (s): 909

molecule: CCc1nncn1C1CCN(S(=O)(=O)c2ccc(F)c(Cl)c2)CC1
RP-LC retention time (s): 734

molecule: O=C(Cn1ccn2nc(-c3ccc(F)cc3)c(CO)c2c1=O)Nc1ccc(Br)cc1
RP-LC retention time (s): 891

molecule: O=C(C1CCN(c2cc(N3CCOCC3)ncn2)CC1)N1CCN(c2ccccc2)CC1
RP-LC retention time (s): 640

molecule: CNC(=O)CCc1nc2ccccc2n(CC(=O)NCc2ccc(F)cc2)c1=O
RP-LC retention time (s): 666

molecule: COc1ccc(-c2cc(=O)c3cc(Br)ccc3o2)cc1OC
RP-LC retention time (s): 912

molecule: Cn1nc(C(=O)N2CCCC2)c2c1CCN(C(=O)CCC(=O)NCCC1=CCCCC1)C2
RP-LC retention time (s): 734

molecule: CCc1ccc(S(=O)(=O)c2cnc(N3CCC(C(N)=O)(N4CCCCC4)CC3)nc2N)cc1
RP-LC retention time (s): 661

molecule: O=C(Nc1ccccc1)C1CC(=O)N(c2n[nH]c3cccc(F)c23)C1 (centres undefined)
RP-LC retention time (s): 730

Recorded RP-LC retention time for Cc1cc(=O)n(CC(=O)N(C)C2CCCCC2)c(N2CCOCC2)n1 , please?
656

Quick one: O=[N+]([O-])c1ccc(-c2csc(Nc3ccc4c(c3)OCO4)n2)cc1
1110

Quick one: O=C(Cc1ccccc1)NCCc1nc2ccccc2[nH]1
545
